# TGT: COX-2 (Homo sapiens)
# Construct: To induce COX-2, lipopolysaccharide (LPS) from E. coli; endogenous in cells; host or cells: heparinised human whole blood from donors, with COX-2 induced by E. coli LPS
# Sequence (P35354 18-604): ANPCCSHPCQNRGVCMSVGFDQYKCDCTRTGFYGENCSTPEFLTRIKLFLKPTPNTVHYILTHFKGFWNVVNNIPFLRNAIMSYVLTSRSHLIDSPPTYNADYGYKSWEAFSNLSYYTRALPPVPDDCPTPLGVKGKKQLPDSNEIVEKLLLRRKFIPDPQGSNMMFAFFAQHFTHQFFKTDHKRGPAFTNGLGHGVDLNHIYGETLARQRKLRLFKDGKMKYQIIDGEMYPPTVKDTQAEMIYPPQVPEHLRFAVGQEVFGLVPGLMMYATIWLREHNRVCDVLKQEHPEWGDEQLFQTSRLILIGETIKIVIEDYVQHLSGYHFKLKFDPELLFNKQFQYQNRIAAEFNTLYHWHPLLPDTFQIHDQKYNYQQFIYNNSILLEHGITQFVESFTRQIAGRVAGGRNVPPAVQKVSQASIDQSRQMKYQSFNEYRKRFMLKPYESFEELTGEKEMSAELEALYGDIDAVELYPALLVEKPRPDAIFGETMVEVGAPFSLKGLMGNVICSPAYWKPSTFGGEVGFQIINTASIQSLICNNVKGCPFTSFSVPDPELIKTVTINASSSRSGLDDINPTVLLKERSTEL
# ASSAY: Human COX-2 enzyme activity in human whole blood (LPS-induced, thromboxane B2 EIA)
# Type: cell-based
# STUDY_CONDITIONS: 1 μM; human whole blood; LPS induction; read-out: COX-2 Inhibition (% at 1 μM)
So I've got a bunch of compounds here, and I need their inhibition at 1 µM values.

Prompt line: // lookup inhibition at 1 µM for CS(=O)(=O)c1ccc(-c2cc(C(=O)CCCO[N+](=O)[O-])nn2-c2ccc(Br)cc2)cc1 [Example 14e]
Response line: 70%

Prompt line: What does the record list as inhibition at 1 µM for NS(=O)(=O)c1ccc(-c2c(-c3ccccc3)noc2COCC(F)(F)CO)cc1 [Example 32c] ?
Response line: 15%

Prompt line: Which measured inhibition at 1 µM value corresponds to `CS(=O)(=O)c1ccc(-c2cc(/C=C\CCO[N+](=O)[O-])nn2C2CCCCC2)cc1` ?
Response line: 70%

Prompt line: What inhibition at 1 µM value was documented for this compound, CS(=O)(=O)c1ccc(-c2cc(COc3cccc(CO)c3)nn2C2CCCCC2)cc1 [Example 17b] ?
Response line: 135%
